# SUBJECT OF TEST: PAR2 (HT-29 cells) (Homo sapiens, UniProt P55085)
# Construct: host or cells: HT-29
# Sequence (P55085 26-397): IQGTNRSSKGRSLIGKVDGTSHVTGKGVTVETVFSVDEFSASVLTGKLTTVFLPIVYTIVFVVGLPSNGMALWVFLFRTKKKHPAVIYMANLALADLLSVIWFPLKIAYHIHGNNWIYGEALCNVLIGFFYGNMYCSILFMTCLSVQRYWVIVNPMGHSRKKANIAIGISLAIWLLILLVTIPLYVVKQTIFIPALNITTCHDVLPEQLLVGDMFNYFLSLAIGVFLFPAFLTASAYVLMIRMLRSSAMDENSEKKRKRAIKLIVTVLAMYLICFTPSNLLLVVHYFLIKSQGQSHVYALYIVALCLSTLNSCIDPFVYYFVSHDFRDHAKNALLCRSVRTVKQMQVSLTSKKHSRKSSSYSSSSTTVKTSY
# TEST PROTOCOL: Ca FLIPR TETRA assay, ANTAGONIST mode, activator 3.1 U/mL trypsin
# Assay type: cell-based
# MEASUREMENT PARAMETERS: HT-29 cells; activator 3.1 U/mL trypsin; Method A: maximal concentration of antagonist 0.1, 1 or 2 μM
hey, just use fulfilled if measured IC50 is less than 1 nM, otherwise not fulfilled

Problem: Is 1 nM strictly greater than the compound's reported IC50? compound: Cc1nc(C(=O)O)cnc1C1CCN(C(=O)c2cc3nc(C4CCC(C)(C)CC4)cc(C(C)(C)C)c3o2)C(C)(C)C1 (centres unmarked)
Result: not fulfilled

Problem: Is 1 nM strictly greater than the compound's reported IC50? compound: "CC1(C)CCC(c2cc(C(C)(C)C)c3oc(C(=O)N4CCN(C(=O)[C@H]5CC[C@@](C)(C(=O)OCOP(=O)(O)O)CC5)CC4(C)C)cc3n2)CC1"
Result: fulfilled

Problem: Is 1 nM strictly greater than the compound's reported IC50? compound: "CC(C)(C)c1cc(-c2ccc(Cl)c(F)c2)nc2cc(C(=O)N3CCN(C(=O)[C@@H]4CCC[C@@H]4C(=O)O)CC3(C)C)oc12"
Result: fulfilled

Problem: Is 1 nM strictly greater than the compound's reported IC50? compound: "CC1(C)CCC(c2cc(C(C)(C)C)c3oc(C(=O)N4CCN(c5ccc(-c6nnn[nH]6)cn5)CC4(C)C)cc3n2)CC1"
Result: not fulfilled

Problem: Is 1 nM strictly greater than the compound's reported IC50? compound: "Cc1ncc(N2CCN(C(=O)c3cc4nc(-c5ccc(Cl)c(F)c5)cc(C(C)(C)C)c4o3)C(C)(C)C2)nc1C(=O)O"
Result: not fulfilled

Problem: Is 1 nM strictly greater than the compound's reported IC50? compound: "Cc1cc(C(=O)O)nc(N2CCN(C(=O)c3cc4nc(-c5ccc(Cl)c(F)c5)cc(C(C)(C)C)c4o3)C(C)(C)C2=O)n1"
Result: fulfilled

Problem: Is 1 nM strictly greater than the compound's reported IC50? compound: "CC1(C)CCC(c2cc(C(C)(C)C)c3oc(C(=O)N4CCN(C(=O)CCCC(=O)O)CC4(C)C)cc3n2)CC1"
Result: not fulfilled

Problem: Is 1 nM strictly greater than the compound's reported IC50? compound: "CC(C)(C)c1cc(-c2ccc(Cl)c(F)c2)nc2cc(C(=O)N3CCN(c4ccc(C(=O)O)cn4)C(=O)C3(C)C)oc12"
Result: not fulfilled

Problem: Is 1 nM strictly greater than the compound's reported IC50? compound: "CC(C)(C)c1cc(-c2ccc(Cl)cc2)nc2cc(C(=O)N3CCNC(=O)CC3(C)C)oc12"
Result: not fulfilled

Problem: Is 1 nM strictly greater than the compound's reported IC50? compound: CC(C)(C)c1cc(-c2ccc(Cl)cc2)nc2cc(C(=O)N3CCC(c4ncc(C(=O)O)cn4)CC3(C)C)oc12 (centres unmarked)
Result: fulfilled

Problem: Is 1 nM strictly greater than the compound's reported IC50? compound: "CC1(C)CCC(c2cc(C(C)(C)C)c3oc(C(=O)N4CCN(c5cccc(-c6nnn[nH]6)n5)CC4(C)C)cc3n2)CC1"
Result: fulfilled

Problem: Is 1 nM strictly greater than the compound's reported IC50? compound: "CC(C)(C)c1cc(-c2ccc(Cl)c(F)c2)nc2cc(C(=O)N3CCN(C(=O)[C@@H]4CCS(=O)(=O)N4)CC3(C)C)oc12"
Result: not fulfilled

Problem: Is 1 nM strictly greater than the compound's reported IC50? compound: "CC1(C)CCC(c2cc(C(C)(C)C)c3oc(C(=O)N4CCN(c5ccnc(C(=O)O)n5)CC4(C)C)cc3n2)CC1"
Result: not fulfilled

Problem: Is 1 nM strictly greater than the compound's reported IC50? compound: Cc1ncc(N2CCN(C(=O)c3cc4nc(C5CCC(C)(C)CC5)cc(C(C)(C)C)c4o3)C(C)(C)C2)nc1C(=O)O [Example I-525]
Result: not fulfilled

Problem: Is 1 nM strictly greater than the compound's reported IC50? compound: "CC(C)(C)c1cc(-c2ccc(Cl)cc2)nc2cc(C(=O)N3CCN(c4ccncc4)C(=O)C3(C)C)oc12"
Result: not fulfilled

Problem: Is 1 nM strictly greater than the compound's reported IC50? compound: "Cc1nccc(N2CCN(C(=O)c3cc4nc(-c5ccc(Cl)cc5)cc(C(C)(C)C)c4o3)C(C)(C)C2)n1"
Result: not fulfilled

Problem: Is 1 nM strictly greater than the compound's reported IC50? compound: "Cc1ccc(N2CCN(C(=O)c3cc4nc(C5CCC(C)(C)CC5)cc(C(C)(C)C)c4o3)C(C)(C)C2=O)nc1C(=O)O"
Result: not fulfilled

Problem: Is 1 nM strictly greater than the compound's reported IC50? compound: Cc1ncc(N2CCN(C(=O)c3cc4nc(C5CCC(C)(C)CC5)cc(C(C)(C)C)c4o3)C(C)(C)C2)nc1C(=O)O [Example I-544]
Result: not fulfilled

Problem: Is 1 nM strictly greater than the compound's reported IC50? compound: "CC(C)[C@@H](CC(=O)N1CCN(C(=O)c2cc3nc(-c4ccc(Cl)c(F)c4)cc(C(C)(C)C)c3o2)C(C)(C)C1)C(=O)O"
Result: fulfilled

Problem: Is 1 nM strictly greater than the compound's reported IC50? compound: Cc1oc(C2CCN(C(=O)c3cc4nc(-c5ccc(Cl)c(F)c5)cc(C(C)(C)C)c4o3)C(C)(C)C2)nc1C(=O)O (centres unmarked)
Result: fulfilled

Problem: Is 1 nM strictly greater than the compound's reported IC50? compound: "CC(C)(C)c1cc(-c2ccc(Cl)cc2)nc2cc(C(=O)N3CCN(c4nc(C(=O)O)ccc4F)CC3(C)C)oc12"
Result: fulfilled

Problem: Is 1 nM strictly greater than the compound's reported IC50? compound: "Cc1ccc(N2CCN(C(=O)c3cc4nc(-c5ccc(Cl)cc5)cc(C(C)(C)C)c4o3)C(C)(C)C2=O)nc1C(=O)O"
Result: not fulfilled

Problem: Is 1 nM strictly greater than the compound's reported IC50? compound: "Cc1ccnc(N2CCN(C(=O)c3cc4nc(-c5ccc(Cl)c(F)c5)cc(C(C)(C)C)c4o3)C(C)(C)C2)c1C(=O)O"
Result: not fulfilled

Problem: Is 1 nM strictly greater than the compound's reported IC50? compound: "CC(C)(C)c1cc(-c2ccc(Cl)cc2)nc2cc(C(=O)N3CCN(c4ccc(C(=O)O)nn4)CC3(C)C)oc12"
Result: not fulfilled

Problem: Is 1 nM strictly greater than the compound's reported IC50? compound: "CC(C)(C)c1cc(-c2ccc(F)cc2)nc2cc(C(=O)N3CCN(c4cnc(C(=O)O)cn4)CC3(C)C)oc12"
Result: not fulfilled

###

Kindly state IC50 for each of the entries shown.
# SUBJECT OF TEST: PAR2 (HT-29 cells) (Homo sapiens)
# Construct: host or cells: HT-29
# Sequence (P55085 26-397): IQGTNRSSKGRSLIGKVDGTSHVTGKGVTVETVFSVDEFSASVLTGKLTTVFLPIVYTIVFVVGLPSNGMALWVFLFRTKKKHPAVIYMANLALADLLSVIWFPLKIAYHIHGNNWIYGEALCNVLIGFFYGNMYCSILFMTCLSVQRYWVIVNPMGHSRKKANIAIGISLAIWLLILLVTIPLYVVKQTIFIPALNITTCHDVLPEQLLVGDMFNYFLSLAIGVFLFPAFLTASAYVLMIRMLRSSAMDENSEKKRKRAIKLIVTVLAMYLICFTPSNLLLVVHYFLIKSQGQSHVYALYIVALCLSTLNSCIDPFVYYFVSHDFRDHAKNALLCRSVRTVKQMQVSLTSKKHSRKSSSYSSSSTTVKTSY
# TEST PROTOCOL: Ca FLIPR TETRA assay, ANTAGONIST mode, activator 8 μM SLIGKV
# Assay type: cell-based
# MEASUREMENT PARAMETERS: HT-29 cells; activator 8 μM SLIGKV; Method A: maximal concentration of antagonist 0.1, 1 or 2 μM
Record the value in nM, omitting the unit from your answer.

Problem: Can you share its IC50? I mean this molecule: CC(C)(C)c1cc(-c2ccc(Cl)c(F)c2)nc2cc(C(=O)N3CCN(c4cccc(-c5nnn[nH]5)n4)CC3(C)C)oc12 [Example I-344]
Result: 0.1

Problem: Can you share its IC50? I mean this molecule: CC1(C)CCC(c2cc(C(C)(C)C)c3oc(C(=O)N4CCN(c5nc(C(=O)O)co5)CC4(C)C)cc3n2)CC1 [Example I-450]
Result: 0.4

Problem: Can you share its IC50? I mean this molecule: Cc1cc(C(=O)O)nc(N2CCN(C(=O)c3cc4nc(-c5ccc(Cl)cc5)cc(C(C)(C)C)c4o3)C(C)(C)C2)n1 [Example I-401]
Result: 0.3
